- Measured On: lipoxygenase (Rattus norvegicus, UniProt P12527)
- Construct: microsomal fraction containing lipoxygenase and cyclooxygenase; endogenous in cells; host or cells: RBL-1 (rat basophilic leukemia) cells, homogenate / microsomal fraction
- Sequence (P12527 whole entry): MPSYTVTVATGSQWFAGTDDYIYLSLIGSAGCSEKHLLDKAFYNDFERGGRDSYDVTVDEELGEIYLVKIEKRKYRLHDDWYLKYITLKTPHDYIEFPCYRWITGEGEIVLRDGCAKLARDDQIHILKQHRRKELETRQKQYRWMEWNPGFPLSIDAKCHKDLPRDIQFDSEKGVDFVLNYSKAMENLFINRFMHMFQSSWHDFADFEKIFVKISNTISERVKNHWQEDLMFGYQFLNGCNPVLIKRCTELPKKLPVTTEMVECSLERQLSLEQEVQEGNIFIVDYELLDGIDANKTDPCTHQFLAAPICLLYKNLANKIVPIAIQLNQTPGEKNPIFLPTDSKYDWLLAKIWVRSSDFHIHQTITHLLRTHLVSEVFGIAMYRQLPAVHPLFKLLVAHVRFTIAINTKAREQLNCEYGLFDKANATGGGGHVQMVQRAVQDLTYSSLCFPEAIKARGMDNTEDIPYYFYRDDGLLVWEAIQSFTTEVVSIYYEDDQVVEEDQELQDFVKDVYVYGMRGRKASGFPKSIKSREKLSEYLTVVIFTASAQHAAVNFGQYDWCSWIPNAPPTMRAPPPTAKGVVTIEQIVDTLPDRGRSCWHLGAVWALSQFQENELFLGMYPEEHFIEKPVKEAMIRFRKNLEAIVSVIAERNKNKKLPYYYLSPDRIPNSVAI
- Assay Notes: Inhibition of lipoxygenase derived from rat basophilic leukemia (RBL-1) cells, products L1 (5,12-di-HETE) and L2 (5-HETE)
- Type: biochemical
- Conditions: dose of 1 μM; L1 = 5,12-di-HETE; read-out: % Inhibition of lipoxygenase (L1) formation
- Procedure: The primary screening test used is a determination of the inhibition of lipoxygenase and cyclooxygenase derived from rat basophilic leukemia (RBL-1) cells. The test was carried out according to the following procedure: Single cell suspensions of RBL-1 cells are homogenized to obtain the microsomal fraction containing lipoxygenase and cyclooxygenase. […] The peak areas of radioactivity representing the products are located by scanning the plates. […]
Label rule met when inhibition at 1 µM is at or above 60%; otherwise label rule not met.

Example results:
| Smiles Structure | Qualitative Label |
| --- | --- |
| CN(C)C(=O)c1ccccc1Nc1ccc(O)cc1 | rule not met |
| O=C(c1cc(Cl)ccc1Nc1ccc(O)cc1)N1CCCCC1 | rule met |
| O=C(c1ccccc1Nc1ccc(O)cc1)N1CCCC1 | rule not met |
| CNC(=O)c1ccccc1Nc1ccc(O)cc1 | rule not met |
| O=C(c1ccc(Cl)cc1Nc1ccc(O)cc1)N1CCCCC1 | rule not met |

Ask: Test whether the compound CC1CCN(C(=O)c2ccccc2Nc2ccc(O)cc2)CC1 records inhibition at 1 µM of 60% or higher.
Result: rule not met

Ask: Test whether the compound CCN(CC)C(=O)c1cc(Cl)ccc1Nc1ccc(O)cc1 records inhibition at 1 µM of 60% or higher.
Result: rule not met

Ask: Test whether the compound CC(C)NC(=O)c1ccccc1Nc1ccc(O)cc1 records inhibition at 1 µM of 60% or higher.
Result: rule met

Ask: Test whether the compound O=C(c1ccc(Cl)cc1Nc1ccc(O)cc1)N1CCCC1 records inhibition at 1 µM of 60% or higher.
Result: rule not met

Source listed as patent US4510139A.
